# Test system: ACHN renal
# Protocol Summary: NCI tumour cell line growth inhibition, 48 h
Measured Attribute: GI50

Query O=C1NOC(c2ccc(O)cc2)(c2ccc(O)cc2)c2ccccc21 yields GI50 of > 100 µM

Query CC(=O)[CH-]C(=O)c1ccccc1.CC(=O)[CH-]C(=O)c1ccccc1.CC(=O)[CH-]C(=O)c1ccccc1.[In+3] yields GI50 of 35 µM

Query CC(=O)O[C@H]1CCC2[C@@H]3CCC4c5nonc5CC[C@]4(C)C3CC[C@@]21C (some centres undefined) yields GI50 of > 10 µM

Query Cc1nn(C)c(COc2ccc(N3CCN(S(=O)(=O)N(C)C)CC3)cc2)c1-c1cccc2c(CCCOc3cccc4ccccc34)c(C(=O)O)n(CCN3CCOCC3)c12 yields GI50 of 4.03 µM

----------
# Test system: MALME-3M melanoma
# Protocol Summary: NCI tumour cell line growth inhibition, 48 h; in the data active = GI50 below about 0.43 µM; inactive = the rest
Give one outcome, nothing more. List: 1 (active), -1 (inactive)

Record excerpt, results attached:
>>> print(df.to_string())
                                   compound  class_label
0  CC(=O)[CH-]C(=O)c1ccccc1.CC(=O)[CH-]C(=O)c1ccccc1.CC(=O)[CH-]C(=O)c1ccccc1.[In+3]           -1
1  CC(=O)[O][Sn]([CH2]c1ccccc1)([CH2]c1ccccc1)[CH2]c1ccccc1           -1
2  C[C@]12CC[C@@H]3c4ccc(O)cc4CC[C@H]3[C@@H]1Cc1cnc(N)nc12           -1

Which outcome was entered for the compound COc1cc([N+](=O)[O-])c(OC)cc1-c1nc2sccn2c1/C=N/N=C(N)N in this test?
-1

Which outcome was entered for the compound COc1ccccc1CNCCCN1C(=O)c2ccc3c4c(ccc(c24)C1=O)C(=O)N(CCCN)C3=O in this test?
1

Which outcome was entered for the compound Cc1cn2c(/C=C3/C(=O)Nc4ccc(O)cc43)c(C)nc2s1 in this test?
-1

Which outcome was entered for the compound O=C1c2ccc3c4c(ccc(c24)C(=O)N1CCCNCc1ccccc1Cl)C(=O)N(CCCNCc1ccccc1Cl)C3=O in this test?
1

----------
# Test system: OVCAR-5 ovarian
# Protocol Summary: NCI tumour cell line growth inhibition, 48 h
Measured Attribute: TGI

Solved entries:
                                   compound      test_system  measured_attribute  reported_result
0  CCOC(=O)C(Cl)(NC(=O)OCc1ccccc1)C(F)(F)F (stereo unspecified)  OVCAR-5 ovarian                 TGI         > 100 µM
1  Cc1cnc(CNC(=O)c2c(=O)c3ccc(N4CCCN(C)CC4)nc3n3c2sc2ccccc23)cn1  OVCAR-5 ovarian                 TGI          28.9 µM
2  COC(=N)c1c(N)[n+]([O-])c2ccc(F)cc2[n+]1[O-]  OVCAR-5 ovarian                 TGI         > 100 µM
3  O=C1C(SCCO)=C(SCCO)C(=O)N1c1ccc(-c2ccccc2)cc1  OVCAR-5 ovarian                 TGI            11 µM
4  O=C(O)C(CS)NCc1c2ccccc2nc2ccccc12 (stereo unspecified)  OVCAR-5 ovarian                 TGI         > 100 µM

Query CC[C@H](CO)Nc1nc(NCc2ccccc2)c2ncn(C(C)C)c2n1 yields TGI of > 96.4 µM

----------
Reported TGI by item:
# Tested on: SN12C renal
# Protocol Summary: NCI tumour cell line growth inhibition, 48 h
// note: answer is a bare numeric in µM

Solved entries:
Compound	Reported Result
C=C1CC[C@@H]2[C@](C)(COC(C)=O)[C@H](OC(C)=O)CC[C@@]2(C)[C@@H]1CC(Nc1ccc(S(=O)(=O)Nc2ccc(Cl)nn2)cc1)C1=CCOC1=O (some centres undefined)	3.66
Nc1ccccc1C#C/C=C\C#Cc1cccc(O)c1	19.6
COc1ccccc1CNCCCN1C(=O)c2ccc3c4c(ccc(c24)C1=O)C(=O)N(CCCN)C3=O	2.76

Could you now look at the following compound, please?
Query COC(=O)C12OC3CO[Si](C(C)C)(C(C)C)O[Si](C(C)C)(C(C)C)OC3C1Oc1nc(=O)ccn12 (centres undefined) yields TGI of 32

----------
# Tested on: SK-MEL-2 melanoma
# Protocol Summary: NCI tumour cell line growth inhibition, 48 h
Where a SMILES comes first, the peptide text is derived from it. [ ]: non-standard residue; d: D form.
Reported TGI by item:

Solved entries:
Molecule	Test System	TGI
O=C1CC(=O)NC(=NNS(=O)(=O)c2ccc(Cl)cc2)N1	SK-MEL-2 melanoma	> 100 µM
Cc1ccc2c(/C=C/c3ccc(N(C)C)cc3)ccc(C(C)C)cc1-2	SK-MEL-2 melanoma	> 100 µM
C[CH2][Sn]([CH2]C)([O]C(=O)c1ccccc1F)[O][Sn]([CH2]C)([CH2]C)[O]C(=O)c1ccccc1F	SK-MEL-2 melanoma	38.6 µM
COC(=O)CC1c2ccccc2N2C(=O)Cc3c([nH]c4ccccc34)C12 (configuration not stated)	SK-MEL-2 melanoma	> 100 µM
CC(C)C[C@H](NC(=O)[C@H](CC(C)C)NC(=O)[C@@H](Cc1c[nH]c2ccccc12)NC(=O)[C@H](Cc1ccccc1)NC(=O)[C@@H](Cc1c[nH]c2ccccc12)NC(=O)[C@H](CCC(N)=O)NC(=O)[C@H](CCC(N)=O)NC(=O)[C@H]1CCCN1C(=O)[C@@H](N)CCCCN)C(N)=O (H-K[dP]QQ[dW]F[dW]LL-NH2)	SK-MEL-2 melanoma	> 100 µM
CC1(C)[C@@H]2C[C@H]1c1cnc(-c3ccccn3)cc1C2CCCCC[C@@H]1c2cc(-c3ccccn3)ncc2[C@@H]2C[C@H]1C2(C)C (some centres not stated)	SK-MEL-2 melanoma	> 88.6 µM

Could you now look at the following molecule, please?
Query CC(Cl)CC(=O)OCC1CCCN2CCCCC12 (configuration not stated) yields TGI of > 100 µM

----------
# System: KM12 colon
# Protocol Summary: NCI tumour cell line growth inhibition, 48 h
Note to self: values exactly at 20 µM are label 1. So TGI at or above 20 µM is label 1, below is label 0.

>>> df
                               smiles_input  class_label
0  O=C(c1ccc(Cl)cc1)N(C(=S)OCCOc1ccccc1)c1ccccc1      label 1
1            CCc1ccccc1NC(=O)/C(N=O)=C(/C)O      label 1
2             BrCC[N+]12CC[N+](CCBr)(CC1)C2      label 1
3  Cc1nn(-c2ccc(Cl)cc2)c2nc3c(nc12)C(=O)C(=O)c1ccccc1-3      label 0
4  COc1cc(OC)c2[nH]c3c(O)c(-c4c(C)cc5c([nH]c6c(OC)cc(OC)cc65)c4O)c(C)cc3c2c1      label 1

Evaluate Fc1ccc(C(OCCN2CC3CCC(C2)N3CCCc2ccccc2)c2ccc(F)cc2)cc1 : TGI at minimum 20 µM?
label 0

Evaluate COc1cccc(/C=C2\S/C(=N/Nc3nc(-c4ccc([N+](=O)[O-])cc4)cs3)NC2=O)c1O : TGI at minimum 20 µM?
label 1

----------
# System: 786-0 renal
# Protocol Summary: NCI tumour cell line growth inhibition, 48 h
Note to self: values exactly at 30 µM are t. So TGI at or above 30 µM is t, below is f.

In [3]: df
Out[3]:
                                   molecule  class_label
0  C[C@]12CC[C@@H]3c4ccc(O)cc4CC[C@H]3[C@@H]1Cc1cnc(N)nc12            t
1       O=S(=O)(c1cccc2c(I)cccc12)N1CCCNCC1            t
2  CC(C)Oc1c(-c2ccc(F)cc2)c(O)c2c3c1oc(=O)n3C=CC2C (stereo not given)            f
3  CCc1cccc(C)c1NC(=O)C1=C(C)NC(C)=C(C(=O)Nc2c(C)cccc2CC)C1c1ccc2c(c1)OCO2            t
4  CCCCCCCCC/C=C1\CCC(CN(C)C)C1=O (stereo not given)            f

Evaluate Cc1cnc2sn(-c3ccc(Br)cc3)c(=O)c2c1 : TGI at minimum 30 µM?
t

Evaluate ClCCCCCc1c2nc(c(CCCCCCl)c3ccc([nH]3)c(CCCCCCl)c3ccc([nH]3)c(CCCCCCl)c3nc1C=C3)C=C2 : TGI at minimum 30 µM?
t

----------
# Test system: U251 CNS
# Protocol Summary: NCI tumour cell line growth inhibition, 48 h
Reported TGI by item:
// note: answer is a bare numeric in µM

Solved entries:
>>> print(df.to_string())
                                   molecule  unit_tag  reported_result
0  CC1C(C#N)(C#N)C(C#N)=C(N)C1(Cl)[N+](=O)[O-] (stereo not given)        µM             34.4
1     O=c1cc(-c2cccnc2)[nH]c2cc3c(cc12)OCO3        µM             30.8
2  O=[N+]([O-])c1ccc(NNN=Nc2ccc(-c3nc4ccccc4s3)cc2)c([N+](=O)[O-])c1        µM             76.3

Query COC(=O)C12OC3CO[Si](C(C)C)(C(C)C)O[Si](C(C)C)(C(C)C)OC3C1Oc1nc(=O)ccn12 (stereo not given) yields TGI of 29.6

Query Cc1ccc(Nc2nc3c(=O)n(C)c(=O)n(C)c3nc2Nc2ccc(C)cc2)cc1 yields TGI of 29.9

Query O=C1c2ccc3c4c(ccc(c24)C(=O)N1CCCNCc1ccccc1Cl)C(=O)N(CCCNCc1ccccc1Cl)C3=O yields TGI of 0.91

Query Cc1nn(C)c(COc2ccc(N3CCN(S(=O)(=O)N(C)C)CC3)cc2)c1-c1cccc2c(CCCOc3cccc4ccccc34)c(C(=O)O)n(CCN3CCOCC3)c12 yields TGI of 11.5

Query COc1ccc(C(=O)/C=C/c2cccc(Nc3ccnc4cc(Cl)ccc34)c2)cc1 yields TGI of 4.82

Attribution: PubChem BioAssay (NCI)
